- tested_target: human FAAH (Homo sapiens)
- Construct: made in house; host or cells: E. coli
- Sequence (O00519 whole entry): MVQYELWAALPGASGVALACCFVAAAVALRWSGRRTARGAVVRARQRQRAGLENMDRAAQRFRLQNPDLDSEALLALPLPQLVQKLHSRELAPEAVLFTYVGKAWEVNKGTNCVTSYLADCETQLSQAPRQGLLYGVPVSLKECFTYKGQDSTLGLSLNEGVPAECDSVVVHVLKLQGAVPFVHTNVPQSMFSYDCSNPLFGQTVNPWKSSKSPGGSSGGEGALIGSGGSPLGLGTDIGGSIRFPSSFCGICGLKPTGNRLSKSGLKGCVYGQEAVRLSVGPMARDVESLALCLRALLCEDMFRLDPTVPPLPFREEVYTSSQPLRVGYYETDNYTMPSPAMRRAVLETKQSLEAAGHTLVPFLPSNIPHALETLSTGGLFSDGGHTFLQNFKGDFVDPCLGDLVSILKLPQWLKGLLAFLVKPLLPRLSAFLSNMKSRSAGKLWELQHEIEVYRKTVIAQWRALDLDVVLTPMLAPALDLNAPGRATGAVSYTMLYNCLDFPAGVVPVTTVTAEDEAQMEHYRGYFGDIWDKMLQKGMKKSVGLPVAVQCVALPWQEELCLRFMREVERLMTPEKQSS
- assay_overview: FAAH assay, human FAAH enzyme inactivation (kinact/Ki)
- Type: biochemical
- settings: pH 7.4, in vitro, oleamide 50 μM, 30° C., read-out: hFAAH kinact/Ki
parameter_measured: kinact/KI (M⁻¹ s⁻¹)

[[record]]
compound = "Cc1noc(NC(=O)N2CCC3(CC2)C[C@H](c2cccc(-c4ccc(F)cc4)c2)CO3)c1C [Example 59]"
tested_target = "human FAAH (Homo sapiens)"
parameter_measured = "kinact/KI"
experimental_result = 3130

[[record]]
compound = "Cc1noc(NC(=O)N2CCC3(CC2)CC(c2ccc(Cl)c(F)c2)CO3)c1C (racemic) [Example 26]"
tested_target = "human FAAH (Homo sapiens)"
parameter_measured = "kinact/KI"
experimental_result = 2140

[[record]]
compound = "Cc1noc(NC(=O)N2CCC3(CC2)C[C@@H](c2cccc(-c4ccc(Cl)cc4)c2)CO3)c1C [Example 62]"
tested_target = "human FAAH (Homo sapiens)"
parameter_measured = "kinact/KI"
experimental_result = 2920

